Param threshold (100 mL/min/kg) applies to intrinsic clearance, rat liver microsomes; output Y when value >= threshold, N when value < threshold.

Known results for compounds:
O=c1ccc(-c2ccc(F)cc2)nn1Cc1ccncc1	N
Cc1csc2nc3n(c(=O)c12)CCNCC3	Y

stdin: Test whether the compound O=c1[nH]c2ccccc2n1C1CCN(Cc2nnc(-c3cc4c(s3)CCCC4)o2)CC1 records intrinsic clearance, rat liver microsomes of 100 mL/min/kg or higher.
stdout: Y

stdin: Could you please find out whether O=C(Nc1cnn(-c2ncccn2)c1)C1CCCCC1 has intrinsic clearance, rat liver microsomes that meets 100 mL/min/kg or exceeds it?
stdout: N

stdin: Determine whether this compound has intrinsic clearance, rat liver microsomes no lower than 100 mL/min/kg: O=C(NCCNC(=O)c1cc(-c2ccccc2)nc2ccccc12)c1ccco1
stdout: Y
